test_system: T1, CstF-64 RRM-Hinge;CstF-77 MT-CTD (Homo sapiens;Homo sapiens, UniProt P33240;Q12996 1-195;607-717, |)
T1 sequence 1: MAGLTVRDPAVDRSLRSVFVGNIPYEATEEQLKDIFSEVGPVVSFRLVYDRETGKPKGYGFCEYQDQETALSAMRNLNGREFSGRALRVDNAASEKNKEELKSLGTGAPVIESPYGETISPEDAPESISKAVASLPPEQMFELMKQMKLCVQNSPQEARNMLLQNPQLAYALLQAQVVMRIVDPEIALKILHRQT
T1 sequence 2: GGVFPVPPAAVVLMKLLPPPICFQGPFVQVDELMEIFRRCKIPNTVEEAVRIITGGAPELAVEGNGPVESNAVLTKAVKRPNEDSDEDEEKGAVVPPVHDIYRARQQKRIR
experiment_notes: NMR (1H-15N HSQC titration); smaller CSPs; last 30 aa of CstF-77 show no significant CSP; 10 mM phosphate pH 6.0, 2 mM TCEP, 30 C; 15N-labeled protein titrated with unlabeled RNA
conditions: protein: recombinant;recombinant, tags: His6-TEV, removed by TEV;MBP-TEV, copies: 1;1, label: none, single strand
recorded_metric: Kd (µM)
Write the value in µM as a bare number.

Incoming: Which Kd is listed for AUUUUAUGUUUCAGGU (ssRNA) [SVL RNA] ?
Outgoing: 3.3
